Origin of values: patent US5733904A

assay: Acute toxicity in rats; parameters: species or system rat (Jcl: Wistar, 5 weeks); settings: rat, in vivo, po, p. o., female
Property: LD50 (mg/kg)

Given Smiles | Property | Reported Measurement
Cl.O=S(=O)(c1cccc2cnccc12)N1CCCNCC1 | LD50 | 348

---

experiment: Acute toxicity in rats; set-up: species or system rat (Jcl: Wistar, 5 weeks); settings: rat, in vivo, iv, i. v., male

Given Smiles | LD50
Cl.O=S(=O)(c1cccc2cnccc12)N1CCCNCC1 | 59.9 mg/kg
